- testSystem: T1, IL-2R on human primary T cells (human, UniProt P01589 22-272; P14784 27-551; P31785 23-369)
- T1 sequence (looked up) 1: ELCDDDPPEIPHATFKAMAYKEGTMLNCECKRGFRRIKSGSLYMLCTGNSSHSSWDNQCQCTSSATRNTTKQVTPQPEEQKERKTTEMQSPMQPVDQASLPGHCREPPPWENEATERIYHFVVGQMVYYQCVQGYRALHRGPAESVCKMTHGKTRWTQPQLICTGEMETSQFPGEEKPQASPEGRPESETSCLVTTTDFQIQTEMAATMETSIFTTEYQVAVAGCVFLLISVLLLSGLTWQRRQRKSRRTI
- T1 sequence (looked up) 2: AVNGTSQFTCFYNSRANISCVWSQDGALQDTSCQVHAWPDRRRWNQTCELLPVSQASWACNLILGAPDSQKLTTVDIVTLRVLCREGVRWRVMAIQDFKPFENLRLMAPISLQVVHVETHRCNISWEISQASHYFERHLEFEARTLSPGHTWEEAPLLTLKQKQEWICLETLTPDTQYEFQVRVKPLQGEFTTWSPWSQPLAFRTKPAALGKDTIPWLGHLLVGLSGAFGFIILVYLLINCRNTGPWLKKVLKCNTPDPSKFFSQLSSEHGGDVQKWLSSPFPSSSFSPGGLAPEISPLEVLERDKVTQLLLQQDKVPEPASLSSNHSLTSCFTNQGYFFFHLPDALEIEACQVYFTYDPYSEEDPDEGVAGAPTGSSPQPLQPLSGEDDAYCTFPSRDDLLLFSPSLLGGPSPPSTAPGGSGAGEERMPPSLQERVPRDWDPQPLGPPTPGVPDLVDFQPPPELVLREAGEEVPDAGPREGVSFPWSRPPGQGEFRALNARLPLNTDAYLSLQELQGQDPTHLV
- T1 sequence (looked up) 3: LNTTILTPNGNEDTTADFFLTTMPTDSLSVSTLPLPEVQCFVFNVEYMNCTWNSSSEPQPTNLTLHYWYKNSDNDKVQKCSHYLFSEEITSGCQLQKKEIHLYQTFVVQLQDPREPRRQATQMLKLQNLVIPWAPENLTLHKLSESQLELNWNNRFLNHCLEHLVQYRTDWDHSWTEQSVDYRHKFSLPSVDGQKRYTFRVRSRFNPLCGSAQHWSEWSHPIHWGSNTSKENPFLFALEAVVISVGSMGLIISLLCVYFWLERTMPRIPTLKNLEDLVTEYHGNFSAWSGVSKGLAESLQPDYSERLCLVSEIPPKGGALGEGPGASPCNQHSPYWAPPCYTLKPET
- experimentSummary: cell-based or functional assay
recordedMetric: CD4 conv EC50 (nM), STAT5 phosphorylation

binder="SEQ ID NO 28 (ligand) APTSSSTKKTQLQLEHLLLDLQMILNGINNHKNPRLTRMLTFKFYMPKKATELKHLQCLEEELKPLEEVLNLAPSKNFHLRPRDLISDINVIVLELKGSETTFMCEYADETATIVEFLNRWITFSQSIISTLT" measurementunit=nM assayvalue=1000

A = SEQ ID NO 23 (ligand) APTSSSTKKTQLQLEHLLLDLQMILNGINNHKNPKLTRMLTFKFYMPKKATELKHLQCLEEELKPLEEVLRLAQSKNFHLRPRDLISDINVIVLELKGSETTFMCEYADETATIVEFLNRWITFSQSIISTLT
B = SEQ ID NO 39 (ligand) APTSSSTKKTQLQLEHLLLDLQMILNGINNYKNPKLTRMLTFKFYMPKKATELKHLQCLEEELKPLEEVLRLAQSKNFHLRPRDLISDINVIVLELKGSETTFMCEYADETATIVEFLNRWITFSQSIISTLT
C = SEQ ID NO 21 (ligand) APTSSSTKKTQLQLEHLLLDLQMILNGINNHKNPKLTRMLTFKFYMPKKATELKHLQCLEEELKPLEEALNLAPSKNFHLRPRDLISNINVIVLELKGSETTFMCEYADETATIVEFLNRWITFSQSIISTLT
// query // sort entries: CD4 conv EC50 (nM), STAT5 phosphorylation, high to low Note for the reader: the ranking is given by listing the labels in the order requested.
// result B, A, C
